Each entry below lists one item and its recorded melting point value.
Structures can show the parent of a compound that is named as a salt.

In [3]: df
Out[3]:
                                   compound  measurement_kind                result
0  Nc1nnc(-c2ccsc2)c(N)n1 [CEN-64, 3,5-Diamino-6-(3-thienyl)-1,2,4-triazine]     melting point         199 to 201 °C
1  Nc1nnc(-c2cccc(-c3ccccc3)c2)c(N)n1 [CEN-159]     melting point  215 to 217 °C (dec.)
2  Cn1nc(-c2sc(Cl)c(Cl)c2Cl)c(N)nc1=N (as salt: methanesulfonate) [CEN-194]     melting point         192 to 194 °C
3  COc1ccc(-c2nnc(N)nc2-c2ccc(OC)cc2)cc1 [CEN-127]     melting point         179 to 181 °C
4  Cn1nc(-c2cc(C(F)(F)F)cc(C(F)(F)F)c2)c(N)nc1=N (as salt: methanesulfonate) [CEN-99]     melting point         179 to 181 °C
5  Nc1nnc(-c2ccccc2-c2ccccc2)c(N)n1 [CEN-74]     melting point         222 to 224 °C
6  Nc1nnc(-c2cc(C(F)(F)F)cc(Cl)c2F)c(N)n1 [CEN-197]     melting point         218 to 220 °C
7  Nc1nnc(-c2cc(Cl)cc(C(F)(F)F)c2)c(N)n1 [CEN-172]     melting point         249 to 251 °C

// switching to the query compound
Given the compound Nc1nnc(-c2cccc(Br)c2)c(N)n1 [CEN-69] , write its reported melting point.
221 to 222 °C

* * *

Where a name gives a salt, the structure may show the parent alone.
measurement-kind: melting point

>>> print(df.to_string())
                                   molecule  measurement_kind         result
0  CCn1nc(-c2cc(C(C)(C)C)cc(C(C)(C)C)c2)c(N)nc1=N (as salt: methanesulphonate) [CEN-189]     melting point  258 to 261 °C

Given the molecule N=c1nc(N)c(-c2cc(Cl)cc(Cl)c2Cl)nn1CC(F)F [CEN-85] , write its reported melting point.
168 to 170 °C (dec.)

Given the molecule Nc1nnc(-c2ccc3c(c2)OCO3)c(N)n1 [CEN-103] , write its reported melting point.
217 to 218 °C

* * *

Each entry below lists one item and its recorded melting point value.
Structures can show the parent of a compound that is named as a salt.

>>> df
                                   compound         result
0        Nc1nnc(-c2ccccc2Br)c(N)n1 [CEN-68]  198 to 200 °C
1     COc1ccc(-c2nnc(N)nc2N)cc1OC [CEN-115]  288 to 290 °C
2  Nc1nnc(-c2cccc(OCc3ccccc3)c2)c(N)n1 [CEN-123]  284 to 286 °C
3  Nc1nnc(-c2c3ccccc3cc3ccccc23)c(N)n1 [CEN-118]  350 to 352 °C
4  Nc1nnc(-c2ccc(-c3ccccc3)cc2)c(N)n1 [CEN-82]  282 to 284 °C
5  COc1cc(-c2nn(C)c(=N)nc2N)cc(OC)c1OC (as salt: methanesulfonate) [CEN-101]  258 to 259 °C

// switching to the query compound
Given the compound Nc1nnc(-c2sc3ccccc3c2Cl)c(N)n1 [CEN-114] , write its reported melting point.
318 to 320 °C
